# measuredOn: UniProt:P01116
# measurementProtocol: Binding to KRAS by surface plasmon resonance (SPR), Single Cycle Kinetics
# protocolConditions: SPR, Single Cycle Kinetics, GDP-bound KRAS wild-type protein; read-out: KRAS KD
Quick reference for pKd among some compounds
// scale note: pKd = -log10(conc_M); give the bare number

Below are worked cases with known answers.
CCCOC[C@H]1C(=O)N[C@@H]([C@@H](C)CC)C(=O)N(C)CC(=O)N(C)[C@H]2C/C=C\CCN(C2=O)[C@@H](Cc2ccc(C)cc2)C(=O)N(C)CC(=O)N[C@@H](CCc2ccc(C(F)(F)F)c(Cl)c2)C(=O)N2C[C@@H](C)C[C@H]2C(=O)NC2(CC(C)(C)C2)C(=O)N(C)[C@@H](C2CCCC2)C(=O)N(C)[C@H](C(=O)N(C)C)CC(=O)N1C [PP2453] :: 10.05
CCO[C@@H]1C[C@H]2C(=O)NC3(CC(C)(C)C3)C(=O)N(C)[C@@H](C(CC)CC)C(=O)N(C)[C@H](CC)CC(=O)N(C)[C@@H](CC3CC3)C(=O)N[C@@H]([C@@H](C)CC)C(=O)N(C)CC(=O)N(C)[C@H]3C/C=C\CCN(C3=O)[C@@H](Cc3ccc(C(F)(F)F)cc3)C(=O)N(C)CC(=O)N[C@@H](CCc3cc(F)c(C(F)(F)F)c(F)c3)C(=O)N2C1 [PP1628] :: 8.60

# CC[C@H](C)[C@@H]1NC(=O)[C@H](CC)N(C)C(=O)C[C@@H](C(=O)N(C)C)N(C)C(=O)[C@H](C2CCCC2)N(C)C(=O)C2(CCCC2)N(C)C(=O)[C@@H]2CCCN2C(=O)[C@H](CCc2cc(F)c(C(F)(F)F)c(F)c2)NC(=O)CN(C)C(=O)[C@H](Cc2ccc(C)cc2)N2CC/C=C\C[C@@H](C2=O)N(C)C(=O)CN(C)C1=O [PP1807] with UniProt:P01116: pKd is 10.21

###

Quick reference for pKd among some compounds
# measuredOn: UniProt:P01116
# measurementProtocol: Binding to KRAS by surface plasmon resonance (SPR), Single Cycle Kinetics
# protocolConditions: SPR, Single Cycle Kinetics, 1:1 binding model; GDP-bound KRAS wild-type protein; read-out: KRAS KD
// scale note: pKd = -log10(conc_M); give the bare number

CC[C@H](C)[C@@H]1NC(=O)[C@H](CC2CC2)N(C)C(=O)C[C@@H](C(=O)N2CCCC2)N(C)C(=O)[C@H](C2CCCC2)N(C)C(=O)C2(CCCC2)NC(=O)[C@@H]2C[C@@H](C(F)(F)F)CN2C(=O)[C@H](CCc2cc(F)c(C(F)(F)F)c(F)c2)NC(=O)CN(C)C(=O)[C@H](Cc2ccc(C(F)(F)F)cc2)N2CC/C=C\C[C@@H](C2=O)N(C)C(=O)CN(C)C1=O :: 9.47

Shifting focus to the compound that follows.
Data point: CCC[C@H]1C(=O)N[C@@H]([C@@H](C)CC)C(=O)N(C)CC(=O)N(C)[C@H]2C/C=C\CCN(C2=O)[C@@H](CC2CCC(F)(F)CC2)C(=O)N(C)CC(=O)N[C@@H](CCc2cc(F)c(C(F)(F)F)c(F)c2)C(=O)N2C[C@H](OCC)C[C@H]2C(=O)NC2(CCC2)C(=O)N(C)[C@@H](C2CCCC2)C(=O)N(C)[C@H](C(=O)N(C)C)CC(=O)N1C ; pKd = 9.85

###

Quick reference for log10 Kd among some molecules
# measuredOn: GDP-bound KRAS wild-type protein (Homo sapiens)
# measurementProtocol: Binding to KRAS by surface plasmon resonance (SPR), Single Cycle Kinetics
# protocolConditions: SPR, Single Cycle Kinetics, GDP-bound KRAS wild-type protein; read-out: KRAS KD
The common logarithm of Kd in nM is what is listed.

Below are worked cases with known answers.
CCO[C@@H]1C[C@H]2C(=O)NC3(CCC3)C(=O)N(C)[C@@H](C3CCCC3)C(=O)N(C)[C@H](C(=O)N3CCOCC3)CC(=O)N(C)[C@@H](CC(C)C)C(=O)N[C@@H]([C@@H](C)CC)C(=O)N(C)CC(=O)N(C)[C@H]3C[C@@H](C)CCN(C3=O)[C@@H](Cc3ccc(C(F)(F)F)cc3)C(=O)N(C)CC(=O)N[C@@H](CCc3cc(F)c(C(F)(F)F)c(F)c3)C(=O)N2C1 :: -1.25
CCC[C@H]1C(=O)N[C@@H]([C@@H](C)CC)C(=O)N(C)CC(=O)N(C)[C@H]2C/C=C\CCN(C2=O)[C@@H](Cc2ccc(C(F)(F)F)cc2)C(=O)N(C)CC(=O)N[C@@H](CCc2ccc(C(F)(F)F)c(OC)c2)C(=O)N2C[C@@H](C)C[C@H]2C(=O)N(C)C2(CCC2)C(=O)N(C)[C@@H](C2CCCC2)C(=O)N(C)[C@H](C(=O)N(C)C)CC(=O)N1C :: -1.70
CCO[C@@H]1C[C@H]2C(=O)NC3(CCC3)C(=O)N(C)[C@@H](C3CCCC3)C(=O)N(C)[C@H](C(=O)N3CCOCC3)CC(=O)N(C)[C@@H](Cc3ccccc3Cl)C(=O)N[C@@H]([C@@H](C)CC)C(=O)N(C)CC(=O)N(C)[C@H]3CCCCCN(C3=O)[C@@H](Cc3ccc(C(F)(F)F)cc3)C(=O)N(C)CC(=O)N[C@@H](CCc3cc(F)c(C(F)(F)F)c(F)c3)C(=O)N2C1 :: 0.43
CCO[C@@H]1C[C@H]2C(=O)NC3(CCC3)C(=O)N(C)[C@@H](C3CCCC3)C(=O)N(C)[C@H](C(=O)N(C)C)CC(=O)N(C)[C@@H](CC)C(=O)N[C@@H]([C@@H](C)CC)C(=O)N(C)CC(=O)N(C)[C@H]3C/C=C\CCN(C3=O)[C@@H](Cc3ccc(C(F)(F)F)cc3)C(=O)N(C)CC(=O)N[C@@H](CCc3cc(C)c(Cl)c(C)c3)C(=O)N2C1 :: -0.20
CCO[C@@H]1C[C@H]2C(=O)NC3(CCC3)C(=O)N(C)[C@@H](CC(C)C)C(=O)N(C)[C@H](C(=O)N(C)C)CC(=O)N(C)[C@@H](CC)C(=O)N[C@@H]([C@@H](C)CC)C(=O)N(C)CC(=O)N(C)[C@H]3C/C=C\CCN(C3=O)[C@@H](Cc3ccc(C(F)(F)F)cc3)C(=O)N(C)CC(=O)N[C@@H](CCc3cc(F)c(C(F)(F)F)c(F)c3)C(=O)N2C1 :: -0.92

Shifting focus to the molecule that follows.
# CCCO[C@@H]1CCN2C(=O)[C@H](CCc3cc(F)c(C(F)(F)F)c(F)c3)NC(=O)CN(C)C(=O)[C@H](Cc3ccc(C(F)(F)F)cc3)N3CCCC[C@@H](C3=O)N(C)C(=O)CN(C)C(=O)[C@H]([C@@H](C)CC)NC(=O)[C@H](CC(C)C)N(C)C(=O)C[C@@H](C(=O)N3CCOCC3)N(C)C(=O)[C@H](C3CCCC3)N(C)C(=O)C3(CCC3)NC(=O)[C@H]12 with GDP-bound KRAS wild-type protein (Homo sapiens): log10 Kd is -0.62

###

# measuredOn: GDP-bound KRAS wild-type protein (Homo sapiens, UniProt P01116)
# Sequence (P01116 whole entry): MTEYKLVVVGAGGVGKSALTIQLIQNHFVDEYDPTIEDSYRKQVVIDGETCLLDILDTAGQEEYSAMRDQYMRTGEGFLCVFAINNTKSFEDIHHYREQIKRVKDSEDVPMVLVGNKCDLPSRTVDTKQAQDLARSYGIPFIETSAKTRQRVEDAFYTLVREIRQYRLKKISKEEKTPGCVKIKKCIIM
# measurementProtocol: Binding to KRAS by surface plasmon resonance (SPR), Single Cycle Kinetics
# protocolConditions: SPR, Single Cycle Kinetics, GDP-bound KRAS wild-type protein; read-out: KRAS KD
Where a SMILES comes first, the peptide text is derived from it. Bridges are numbered along the chain shown (N, C = ends). [ ]: non-standard residue; d: D form. The star is where a group is joined. hPhe(3-Cl-4-CF3) = N[C@@H](CCc1ccc(C(F)(F)F)c(Cl)c1)C(=O)O; NPrPhe(4-CF3) = CCCN[C@@H](Cc1ccc(C(F)(F)F)cc1)C(=O)O; NMeGly(cPent) = CN[C@H](C(=O)O)C1CCCC1; NEtLeu = CCN[C@@H](CC(C)C)C(=O)O; NMeD = CN[C@@H](CC(=O)O)C(=O)O; Morpholide = C1CN(*)CCO1; Ac5c = NC1(C(=O)O)CCCC1; Sar = CNCC(=O)O
Quick reference for pKd among some compounds
// scale note: pKd = -log10(conc_M); give the bare number

CCCN1C(=O)CN(C)C(=O)CNC(=O)[C@H]([C@@H](C)CC)NC(=O)[C@H](CC(C)C)N(CC)C(=O)C[C@@H](C(=O)N2CCOCC2)N(C)C(=O)[C@H](C2CCCC2)N(C)C(=O)C2(CCCC2)NC(=O)[C@@H]2CCCN2C(=O)[C@H](CCc2ccc(C(F)(F)F)c(Cl)c2)NC(=O)CN(C)C(=O)[C@@H]1Cc1ccc(C(F)(F)F)cc1 [PP1967] ([NEtLeu]IG[Sar][NPrPhe(4-CF3)][Sar][hPhe(3-Cl-4-CF3)]P[Ac5c][NMeGly(cPent)][NMeD]-Morpholide; lactam N-11) :: 9.44

Shifting focus to the compound that follows.
# CCO[C@@H]1C[C@H]2C(=O)NC3(CC(C)(C)C3)C(=O)N(C)[C@@H](C3CCCC3)C(=O)N(C)[C@H](C(=O)N(C)CC)CC(=O)N(C)[C@@H](COC)C(=O)N[C@@H]([C@@H](C)CC)C(=O)N(C)CC(=O)N(C)[C@H]3C/C=C\CCN(C3=O)[C@@H](Cc3ccc(C(F)(F)F)cc3)C(=O)N(C)CC(=O)N[C@@H](CCc3ccc(C(F)(F)F)c(OC)c3)C(=O)N2C1 with GDP-bound KRAS wild-type protein (Homo sapiens, UniProt P01116): pKd is 10.19
